target: HiBit-BRG1 fusion protein (Homo sapiens)
Construct: expressed in transfected cells
Sequence (P51532 whole entry, the tested form may be a part): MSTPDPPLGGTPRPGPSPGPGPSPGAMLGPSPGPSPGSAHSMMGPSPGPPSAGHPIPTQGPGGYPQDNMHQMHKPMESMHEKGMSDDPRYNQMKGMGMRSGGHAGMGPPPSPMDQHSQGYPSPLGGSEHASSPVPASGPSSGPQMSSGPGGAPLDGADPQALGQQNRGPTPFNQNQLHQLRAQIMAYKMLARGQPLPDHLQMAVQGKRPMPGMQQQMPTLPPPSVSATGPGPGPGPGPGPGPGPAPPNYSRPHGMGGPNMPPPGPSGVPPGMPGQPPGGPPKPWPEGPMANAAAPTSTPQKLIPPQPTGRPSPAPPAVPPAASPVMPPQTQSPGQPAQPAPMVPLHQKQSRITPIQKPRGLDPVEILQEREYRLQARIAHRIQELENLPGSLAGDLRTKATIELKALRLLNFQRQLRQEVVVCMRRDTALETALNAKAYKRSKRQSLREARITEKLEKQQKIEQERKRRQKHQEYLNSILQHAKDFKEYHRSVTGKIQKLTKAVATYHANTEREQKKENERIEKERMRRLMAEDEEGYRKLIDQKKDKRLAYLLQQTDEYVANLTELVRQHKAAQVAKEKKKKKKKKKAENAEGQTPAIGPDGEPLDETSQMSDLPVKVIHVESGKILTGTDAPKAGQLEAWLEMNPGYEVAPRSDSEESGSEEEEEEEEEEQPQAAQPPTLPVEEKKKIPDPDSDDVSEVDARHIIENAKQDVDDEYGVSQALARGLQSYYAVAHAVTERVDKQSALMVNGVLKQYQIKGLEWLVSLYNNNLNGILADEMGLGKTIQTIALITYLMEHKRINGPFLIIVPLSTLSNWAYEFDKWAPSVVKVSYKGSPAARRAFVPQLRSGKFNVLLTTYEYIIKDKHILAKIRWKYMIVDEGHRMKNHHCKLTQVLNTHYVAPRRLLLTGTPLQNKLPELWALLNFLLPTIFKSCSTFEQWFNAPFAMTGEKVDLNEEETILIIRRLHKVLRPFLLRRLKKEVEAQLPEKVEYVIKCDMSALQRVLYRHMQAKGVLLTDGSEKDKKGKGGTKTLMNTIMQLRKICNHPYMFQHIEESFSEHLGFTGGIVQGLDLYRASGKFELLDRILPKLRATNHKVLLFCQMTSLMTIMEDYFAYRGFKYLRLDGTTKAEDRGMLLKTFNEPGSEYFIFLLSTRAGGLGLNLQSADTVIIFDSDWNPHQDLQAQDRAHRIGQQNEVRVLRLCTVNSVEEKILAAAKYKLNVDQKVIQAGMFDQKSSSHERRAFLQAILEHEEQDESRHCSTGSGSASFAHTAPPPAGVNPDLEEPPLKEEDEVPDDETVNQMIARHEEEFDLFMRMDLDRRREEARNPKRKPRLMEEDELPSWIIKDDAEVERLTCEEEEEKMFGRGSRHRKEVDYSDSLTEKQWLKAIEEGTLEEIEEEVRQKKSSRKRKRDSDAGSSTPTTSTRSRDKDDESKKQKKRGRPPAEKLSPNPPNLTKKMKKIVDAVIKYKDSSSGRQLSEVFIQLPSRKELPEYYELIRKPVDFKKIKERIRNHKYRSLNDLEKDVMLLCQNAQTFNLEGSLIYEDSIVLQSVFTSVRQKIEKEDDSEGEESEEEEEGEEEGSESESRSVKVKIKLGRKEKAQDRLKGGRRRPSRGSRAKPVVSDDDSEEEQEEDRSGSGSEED
test-summary: HiBiT-BRG1 cell-based degradation assay (Nano-Glo HiBiT Lytic Detection, 24 h)
condition-description: HeLa cell line expressing HiBit-BRG1 and LgBit, read-out: BRMG1 HiBit Degradation IC50
Collected DC50 values appear next to each entry.

Cc1ncsc1-c1ccc([C@H](C)NC(=O)[C@@H]2C[C@@H](O)CN2C(=O)[C@H](c2cc(N3CC(CN4CC(c5cc6cc(-c7ccccc7O)nnc6[nH]5)C4)C3)no2)C(C)C)cc1 (single isomer, unassigned) | > 1000 nM
Cc1ncsc1-c1ccc([C@H](C)NC(=O)[C@@H]2C[C@@H](O)CN2C(=O)[C@@H](c2cc(OCCN3CC(c4[nH]c5nnc(-c6ccccc6O)cc5c4C4CC4)C3)no2)C(C)C)cc1 (racemic) | > 100 nM
Cc1ncsc1-c1ccc([C@H](C)NC(=O)[C@@H]2C[C@@H](O)CN2C(=O)[C@@H](c2cc(OCCN3C[C@@H]4[C@H](C3)[C@H]4c3[nH]c4nnc(-c5ccccc5O)cc4c3C)no2)C(C)C)cc1 | > 10 nM

Moving on to the next compound.
DC50 in this record for Cc1ncsc1-c1ccc([C@H](C)NC(=O)[C@@H]2C[C@@H](O)CN2C(=O)[C@@H](c2cc(N3CC(CN4CC(c5cc6cc(-c7ccccc7O)nnc6[nH]5)C4)C3)no2)C(C)C)cc1 (single isomer, unassigned) : > 100 nM

src = patent US20240024488A1
